Known Crel of a selection of compounds
Test: Relative concentration required to cause 50% degradation of the poly (U) 3'[32P]p5'C3'p
Just the number.

Ask | Tell me measured Crel for Cc1nc(N)c2ncn([C@@H]3O[C@H](COP(=O)(O)OP(=O)(O)OP(=O)(O)O)[C@@H](O)[C@H]3OP(=O)(O)OC[C@H]3O[C@@H](n4cnc5c(N)ncnc54)[C@H](OP(=O)(O)OC[C@H]4O[C@@H](n5cnc6c(N)ncnc65)[C@H](O)[C@@H]4O)[C@@H]3O)c2n1 please.
Reply | 5

More entries:
Ask | Tell me measured Crel for Cc1nc(N)c2ncn([C@@H]3O[C@H](COP(=O)(O)O[C@@H]4[C@H](O)[C@@H](COP(=O)(O)O[C@@H]5[C@H](O)[C@@H](COP(=O)(O)O)O[C@H]5n5cnc6c(N)nc(C)nc65)O[C@H]4n4cnc5c(N)nc(C)nc54)[C@@H](O)[C@H]3O)c2n1 please.
Reply | 107

###

Biological target: 2-5A-dependent ribonuclease (Homo sapiens, UniProt Q05823)
Sequence (Q05823 whole entry): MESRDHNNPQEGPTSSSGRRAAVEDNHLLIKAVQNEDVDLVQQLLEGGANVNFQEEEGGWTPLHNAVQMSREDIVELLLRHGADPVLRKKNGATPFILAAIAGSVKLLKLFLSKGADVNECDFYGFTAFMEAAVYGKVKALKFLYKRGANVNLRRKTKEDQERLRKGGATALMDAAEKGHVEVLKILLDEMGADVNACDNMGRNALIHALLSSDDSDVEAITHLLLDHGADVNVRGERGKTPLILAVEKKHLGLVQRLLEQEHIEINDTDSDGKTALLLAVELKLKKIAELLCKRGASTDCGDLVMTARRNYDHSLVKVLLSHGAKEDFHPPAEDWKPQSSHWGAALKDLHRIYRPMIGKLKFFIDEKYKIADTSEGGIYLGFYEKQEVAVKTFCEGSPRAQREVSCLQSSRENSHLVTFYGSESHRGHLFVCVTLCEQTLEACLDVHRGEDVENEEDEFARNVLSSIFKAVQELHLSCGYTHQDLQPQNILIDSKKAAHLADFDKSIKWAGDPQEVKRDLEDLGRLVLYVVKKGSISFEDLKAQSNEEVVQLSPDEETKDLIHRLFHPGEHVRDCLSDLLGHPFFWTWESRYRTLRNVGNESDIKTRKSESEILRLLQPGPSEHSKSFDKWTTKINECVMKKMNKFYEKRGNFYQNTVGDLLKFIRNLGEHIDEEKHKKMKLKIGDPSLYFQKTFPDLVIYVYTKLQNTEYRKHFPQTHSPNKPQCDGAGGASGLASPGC
Test: Activation of purified recombinant human Ribonuclease L by the compound was measured as degradation of [32P]-pC11U2C7
Satisfied if EC50 is below 0.7 nM. Not satisfied if not; exact matches included in Not satisfied.

Ask | is_below(EC50, 0.7 nM) for Cc1nc(N)c2ncn([C@@H]3O[C@H](COP(=O)(O)O[C@@H]4[C@H](O)[C@@H](COP(=O)(O)O[C@@H]5[C@H](O)[C@@H](COP(=O)(O)O)O[C@H]5n5cnc6c(N)nc(C)nc65)O[C@H]4n4cnc5c(N)nc(C)nc54)[C@@H](O)[C@H]3O)c2n1 ?
Reply | Not satisfied

Ask | is_below(EC50, 0.7 nM) for Cc1nc(N)c2ncn([C@@H]3O[C@H](COP(=O)(O)O[C@@H]4[C@H](O)[C@@H](COP(=O)(O)O[C@@H]5[C@H](O)[C@@H](COP(=O)(O)OP(=O)(O)OP(=O)(O)O)O[C@H]5n5cnc6c(N)nc(C)nc65)O[C@H]4n4cnc5c(N)nc(C)nc54)[C@@H](O)[C@H]3O)c2n1 ?
Reply | Not satisfied

Ask | is_below(EC50, 0.7 nM) for Cc1nc(N)c2ncn([C@@H]3O[C@H](COP(=O)(O)O[C@@H]4[C@H](O)[C@@H](COP(=O)(O)O[C@@H]5[C@H](O)[C@@H](COP(=O)(O)OP(=O)(O)OP(=O)(O)O)O[C@H]5n5cnc6c(N)ncnc65)O[C@H]4n4cnc5c(N)ncnc54)[C@@H](O)[C@H]3O)c2n1 ?
Reply | Satisfied

Ask | is_below(EC50, 0.7 nM) for Cc1nc(N)c2ncn([C@@H]3O[C@H](COP(=O)(O)O[C@@H]4[C@H](O)[C@@H](COP(=O)(O)O[C@@H]5[C@H](O)[C@@H](COP(=O)(O)O)O[C@H]5n5cnc6c(N)ncnc65)O[C@H]4n4cnc5c(N)ncnc54)[C@@H](O)[C@H]3O)c2n1 ?
Reply | Satisfied

Ask | is_below(EC50, 0.7 nM) for Cc1nc(N)c2ncn([C@@H]3O[C@H](COP(=O)(O)OP(=O)(O)OP(=O)(O)O)[C@@H](O)[C@H]3OP(=O)(O)OC[C@H]3O[C@@H](n4cnc5c(N)ncnc54)[C@H](OP(=O)(O)OC[C@H]4O[C@@H](n5cnc6c(N)ncnc65)[C@H](O)[C@@H]4O)[C@@H]3O)c2n1 ?
Reply | Not satisfied

Every entry's value here was drawn from ChEMBL document CHEMBL1133074.
